tested on: MGC-803; assay: Antiproliferative activity against human MGC-803 cells assessed as inhibition of cell growth incubated for 72 hrs by SRB assay; format: functional, cell-based; conditions: MGC-803, 72 h
Property Measured: IC50 (µM)

>>> recorded_value("C=C1C(=O)[C@@]23[C@H](O)C[C@@H]4C(C)(C)CCC[C@@]4(COC(C)=O)[C@@H]2[C@@H](O)C[C@H]1[C@H]3OC(=O)c1cccc(C(F)(F)F)c1")
1.15

1. C=C1C(=O)[C@@]23[C@H](O)C[C@@H]4C(C)(C)CCC[C@@]4(COC(C)=O)[C@@H]2[C@@H](O)C[C@H]1[C@H]3OC(=O)c1ccc(OC)c(OC)c1
2. C=C1C(=O)[C@@]23[C@H](O)C[C@@H]4C(C)(C)CCC[C@@]4(COC(C)=O)[C@@H]2[C@@H](O)C[C@H]1[C@H]3OC(=O)c1ccc(CCl)cc1
Query: Smaller IC50 value, 1 vs 2 ? Write the label of whichever entry you select.
Reply: 2
(2: 0.2 µM, 1: 0.57 µM)

###

tested on: MGC-803; test: Antiproliferative activity against human MGC-803 cells assessed as inhibition of cell growth incubated for 72 hrs by SRB assay; format: functional, cell-based; conditions: MGC-803, 72 h
Property Measured: IC50 (nM)

Here's what some known entries look like.
>>> recorded_value("C=C1C(=O)[C@@]23[C@H](O)C[C@@H]4C(C)(C)CCC[C@@]4(COC(C)=O)[C@@H]2[C@@H](O)C[C@H]1[C@H]3OC(=O)c1ccc(OC)cc1")
460
>>> recorded_value("C=C1C(=O)[C@@]23[C@H](O)C[C@@H]4C(C)(C)CCC[C@@]4(COC(C)=O)[C@@H]2[C@@H](O)C[C@H]1[C@H]3OC(=O)CCc1ccccc1")
1280
>>> recorded_value("C=C1C(=O)[C@@]23[C@H](O)C[C@@H]4C(C)(C)CCC[C@@]4(COC(C)=O)[C@@H]2[C@@H](O)C[C@H]1[C@H]3OC(=O)c1ccc(F)cc1")
920
>>> recorded_value("C=C1C(=O)[C@@]23[C@H](O)C[C@@H]4C(C)(C)CCC[C@@]4(COC(C)=O)[C@@H]2[C@@H](O)C[C@H]1[C@H]3OC(=O)c1ccccc1C(F)(F)F")
790
>>> recorded_value("C=C1C(=O)[C@@]23[C@H](O)C[C@@H]4C(C)(C)CCC[C@@]4(COC(C)=O)[C@@H]2[C@@H](O)C[C@H]1[C@H]3OC(=O)c1ccc(CBr)cc1")
340

a. C=C1C(=O)[C@@]23[C@H](O)C[C@@H]4C(C)(C)CCC[C@@]4(COC(C)=O)[C@@H]2[C@@H](O)C[C@H]1[C@H]3OC(=O)c1ccccc1Cl
b. C=C1C(=O)[C@@]23[C@H](O)C[C@@H]4C(C)(C)CCC[C@@]4(COC(C)=O)[C@@H]2[C@@H](O)C[C@H]1[C@H]3O
Query: Smaller IC50 value, a vs b ? Write the label of whichever entry you select.
Reply: a
(a: 710 nM, b: 8700 nM)

###

system: MGC-803; assay: Antiproliferative activity against human MGC-803 cells assessed as inhibition of cell growth incubated for 72 hrs by SRB assay; format: functional, cell-based; settings: MGC-803, 72 h
Property Measured: IC50 (µM)

Here's what some known entries look like.
>>> recorded_value("C=C1C(=O)[C@@]23[C@H](O)C[C@@H]4C(C)(C)CCC[C@@]4(COC(C)=O)[C@@H]2[C@@H](O)C[C@H]1[C@H]3OC(=O)c1cccc(C)c1")
0.31
>>> recorded_value("C=C1C(=O)[C@@]23[C@H](O)C[C@@H]4C(C)(C)CCC[C@@]4(COC(C)=O)[C@@H]2[C@@H](O)C[C@H]1[C@H]3OC(=O)c1ccc(Cl)cc1Cl")
1.15
>>> recorded_value("C=C1C(=O)[C@@]23[C@H](O)C[C@@H]4C(C)(C)CCC[C@@]4(COC(C)=O)[C@@H]2[C@@H](O)C[C@H]1[C@H]3OC(=O)c1cccc(F)c1")
2.35
>>> recorded_value("C=C1C(=O)[C@@]23[C@H](O)C[C@@H]4C(C)(C)CCC[C@@]4(COC(C)=O)[C@@H]2[C@@H](O)C[C@H]1[C@H]3OC(=O)c1ccc(Cl)cc1")
0.28

I. C=C1C(=O)[C@@]23[C@H](O)C[C@@H]4C(C)(C)CCC[C@@]4(COC(C)=O)[C@@H]2[C@@H](O)C[C@H]1[C@H]3OC(=O)c1ccccc1F
II. C=C1C(=O)[C@@]23[C@H](O)C[C@@H]4C(C)(C)CCC[C@@]4(COC(C)=O)[C@@H]2[C@@H](O)C[C@H]1[C@H]3OC(=O)CCCBr
Query: Smaller IC50 value, I vs II ? Write the label of whichever entry you select.
Reply: II

###

test system: MGC-803; test: Antiproliferative activity against human MGC-803 cells assessed as inhibition of cell growth incubated for 72 hrs by SRB assay; format: functional, cell-based; settings: MGC-803, 72 h
pIC50: −log10 of the molar value.
Property Measured: pIC50

>>> recorded_value("C=C1C(=O)[C@@]23[C@H](O)C[C@@H]4C(C)(C)CCC[C@@]4(COC(C)=O)[C@@H]2[C@@H](O)C[C@H]1[C@H]3OC(=O)c1cccc(Cl)c1Cl")
6.16
>>> recorded_value("C=C1C(=O)[C@@]23[C@H](O)C[C@@H]4C(C)(C)CCC[C@@]4(COC(C)=O)[C@@H]2[C@@H](O)C[C@H]1[C@H]3OC(=O)c1ccc(Br)cc1")
6.21
>>> recorded_value("C=C1C(=O)[C@@]23[C@H](O)C[C@@H]4C(C)(C)CCC[C@@]4(COC(C)=O)[C@@H]2[C@@H](O)C[C@H]1[C@H]3OC(=O)c1ccccc1Br")
6.28

###

tested on: ECa-109 cell line; assay: Antiproliferative activity against human EC109 cells assessed as inhibition of cell growth incubated for 72 hrs by SRB assay; assay type: functional, cell-based; settings: ECa-109, 72 h
Measured IC50 values are reported for all entries that follow.
Lab book: enter the figure in nM, no units written.

>>> recorded_value("C=C1C(=O)[C@@]23[C@H](O)C[C@@H]4C(C)(C)CCC[C@@]4(COC(C)=O)[C@@H]2[C@@H](O)C[C@H]1[C@H]3OC(=O)c1ccc(CCl)cc1")
130
>>> recorded_value("C=C1C(=O)[C@@]23[C@H](O)C[C@@H]4C(C)(C)CCC[C@@]4(COC(C)=O)[C@@H]2[C@@H](O)C[C@H]1[C@H]3OC(=O)c1ccc(CBr)cc1")
170
>>> recorded_value("C=C1C(=O)[C@@]23[C@H](O)C[C@@H]4C(C)(C)CCC[C@@]4(COC(C)=O)[C@@H]2[C@@H](O)C[C@H]1[C@H]3OC(=O)c1ccc(F)cc1")
8480

Query: Look up IC50: C=C1C(=O)[C@@]23[C@H](O)C[C@@H]4C(C)(C)CCC[C@@]4(COC(C)=O)[C@@H]2[C@@H](O)C[C@H]1[C@H]3OC(=O)c1ccc(Cl)cc1Cl
Reply: 4250

Query: Next entry: C=C1C(=O)[C@@]23[C@H](O)C[C@@H]4C(C)(C)CCC[C@@]4(COC(C)=O)[C@@H]2[C@@H](O)C[C@H]1[C@H]3OC(=O)c1cccc(OC)c1
Reply: 440

Query: Next entry: C=C1C(=O)[C@@]23[C@H](O)C[C@@H]4C(C)(C)CCC[C@@]4(COC(C)=O)[C@@H]2[C@@H](O)C[C@H]1[C@H]3OC(=O)CCCBr
Reply: 760

Query: Next entry: C=C1C(=O)[C@@]23[C@H](O)C[C@@H]4C(C)(C)CCC[C@@]4(COC(C)=O)[C@@H]2[C@@H](O)C[C@H]1[C@H]3OC(=O)c1ccccc1Cl
Reply: 410

Query: Next entry: C=C1C(=O)[C@@]23[C@H](O)C[C@@H]4C(C)(C)CCC[C@@]4(COC(C)=O)[C@@H]2[C@@H](O)C[C@H]1[C@H]3OC(=O)c1cccc(C)c1
Reply: 370

Query: Next entry: C=C1C(=O)[C@@]23[C@H](O)C[C@@H]4C(C)(C)CCC[C@@]4(COC(C)=O)[C@@H]2[C@@H](O)C[C@H]1[C@H]3OC(=O)c1ccc(OC)c(OC)c1
Reply: 270

Query: Next entry: C=C1C(=O)[C@@]23[C@H](O)C[C@@H]4C(C)(C)CCC[C@@]4(COC(C)=O)[C@@H]2[C@@H](O)C[C@H]1[C@H]3OC(=O)c1ccc(C)cc1
Reply: 300

Query: Next entry: C=C1C(=O)[C@@]23[C@H](O)C[C@@H]4C(C)(C)CCC[C@@]4(COC(C)=O)[C@@H]2[C@@H](O)C[C@H]1[C@H]3OC(=O)c1ccccc1F
Reply: 1630
